System: Escherichia coli TOP10;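 also: peptides expressed intracellularly from a pBAD plasmid library in pooled LB shake-flask culture, induced with 0.3% L-arabinose, DNA abundance read by NGS, three biological replicates, DESeq2 with apeglm shrinkage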
Assay: shrunken log2 fold change of peptide-encoding DNA abundance (4.5 h post-induction vs induction); higher = less antimicrobial activity (less host growth inhibition)
Details: time post-induction: 4.5 h; library: site-saturation at positions 5, 18, 19, 20
Respond with label 1 for shrunken log2 fold change values of -0.04 and above, label 0 for values below.

>  <sequence.entry>
RRIRQRPPRLPRPRPRPMESPRP

>  <class>
label 0

$$$$

## Input Textbook exercise: given the entry RRIRLRPPRLPRPRPRPISYPRP , state whether its shrunken log2 fold change is greater than or equal to -0.04.
## Output label 0

## Input Textbook exercise: given the entry RRIRRRPPRLPRPRPRPGDDPRP , state whether its shrunken log2 fold change is greater than or equal to -0.04.
## Output label 1

## Input Textbook exercise: given the entry RRIRRRPPRLPRPRPRPGHVPRP , state whether its shrunken log2 fold change is greater than or equal to -0.04.
## Output label 1

## Input Textbook exercise: given the entry RRIRWRPPRLPRPRPRPYAGPRP , state whether its shrunken log2 fold change is greater than or equal to -0.04.
## Output label 1

## Input Textbook exercise: given the entry RRIRYRPPRLPRPRPRPYIVPRP , state whether its shrunken log2 fold change is greater than or equal to -0.04.
## Output label 0

Origin of values: the supplement of paper PMC9112550
